assay: Acute toxicity (oral, general symptom and death observed for 7 days); assay type: in vivo, mice (ddy strain, male); conditions: mouse, in vivo; oral, mice, 7 days observation (Δ values); read-out: Acute toxicity, 50% lethal dose LD50
Field 'label' (enum: satisfied / not satisfied). Set to satisfied when LD50 at 168 h is strictly under 1000 mg/kg; else not satisfied.

Field: example entries. Status: answers known.
{"structure_notation": "CNC(=O)N(C)C(=O)Nc1ccccn1", "cat": "satisfied"}
{"structure_notation": "CCNC(=O)N(C)C(=O)Nc1ccccc1", "cat": "not satisfied"}
{"structure_notation": "CCNC(=O)N(C)C(=O)Nc1ccc(OC)c(OC)c1", "cat": "satisfied"}
{"structure_notation": "CNC(=O)N(C)C(=O)Nc1cccnc1", "cat": "not satisfied"}
{"structure_notation": "CNC(=O)N(C)C(=O)Nc1ccccc1", "cat": "not satisfied"}

Enquiry: LD50 at 168 h strictly < 1000 mg/kg for this compound? CNC(=O)N(C)C(=O)Nc1ccc(OC)cc1
Return: not satisfied

Enquiry: Try this compound too: CCNC(=O)NC(=O)Nc1ccc(OC)cc1
Return: not satisfied

* * *

system: pain reaction of the mouse caused by a clamp; assay: Analgesic activity, Haffner method; assay type: in vivo, mice (ddy strain, male); details: Mus musculus; oral, mice (Δ values; range in parentheses); read-out: Analgesic activity, Haffner method, 50% effective dose ED50
Can you tell me ED50 for the items I'm about to list?
One number for each entry, in mg/kg.

Below, each entry is followed by its recorded ED50 result.
{"compound": "CC(C)CNC(=O)N(C)C(=O)Nc1ccccc1 [Compound No. 49, 1-Isobutyl-3-methyl-5-phenylbiuret]", "test_value": 50}
{"compound": "CNC(=O)N(C)C(=O)Nc1ccccn1 [Compound No. 14, 1,3-dimethyl-5-(2-pyridyl)biuret]", "test_value": 145}
{"compound": "CNC(=O)N(C)C(=O)Nc1ccccc1 [Compound No. 3, 1,3-dimethyl-5-phenylbiuret]", "test_value": 111}
{"compound": "CCNC(=O)N(C)C(=O)Nc1cc(OC)c(OC)c(OC)c1 [Compound No. 37]", "test_value": 46}
{"compound": "CCNC(=O)N(C)C(=O)Nc1ccccc1 [Compound No. 31, 1-ethyl-3-methyl-5-phenylbiuret]", "test_value": 105}

Pending compound:
Enquiry: Which ED50 is listed for CCCCNC(=O)NC(=O)NCc1ccccc1 [compound 48] ?
Return: 110

* * *

tested on: ddy strain of male mice; test: Acute toxicity (oral, general symptom and death observed for 7 days); assay type: in vivo; conditions: 2000 mg/kg oral, 7 days
Can you tell me Acute toxicity, death number of mice/number of mice tested for the items I'm about to list?

Below, each entry is followed by its recorded Acute toxicity, death number of mice/number of mice tested result.
{"molecule": "CN(C(=O)NCCO)C(=O)Nc1ccccc1 [compound 56]", "test_value": "0/4"}
{"molecule": "CCNC(=O)NC(=O)NCc1ccccc1 [compound 29, 1-Ethyl-5-benzylbiuret]", "test_value": "1/4"}
{"molecule": "CCCCNC(=O)NC(=O)Nc1ccccc1 [compound 46]", "test_value": "0/4"}
{"molecule": "CN(C(=O)NCC(O)CO)C(=O)Nc1ccccc1 (centres unmarked) [compound 58]", "test_value": "0/4"}

Pending molecule:
Enquiry: Which Acute toxicity, death number of mice/number of mice tested is listed for CCNC(=O)NC(=O)Nc1ccc(Cl)cc1 [compound 26] ?
Return: 0/4
